Entries with reported IC50 on hVEGFR2 (Homo sapiens)
Sequence (P35968 20-1356): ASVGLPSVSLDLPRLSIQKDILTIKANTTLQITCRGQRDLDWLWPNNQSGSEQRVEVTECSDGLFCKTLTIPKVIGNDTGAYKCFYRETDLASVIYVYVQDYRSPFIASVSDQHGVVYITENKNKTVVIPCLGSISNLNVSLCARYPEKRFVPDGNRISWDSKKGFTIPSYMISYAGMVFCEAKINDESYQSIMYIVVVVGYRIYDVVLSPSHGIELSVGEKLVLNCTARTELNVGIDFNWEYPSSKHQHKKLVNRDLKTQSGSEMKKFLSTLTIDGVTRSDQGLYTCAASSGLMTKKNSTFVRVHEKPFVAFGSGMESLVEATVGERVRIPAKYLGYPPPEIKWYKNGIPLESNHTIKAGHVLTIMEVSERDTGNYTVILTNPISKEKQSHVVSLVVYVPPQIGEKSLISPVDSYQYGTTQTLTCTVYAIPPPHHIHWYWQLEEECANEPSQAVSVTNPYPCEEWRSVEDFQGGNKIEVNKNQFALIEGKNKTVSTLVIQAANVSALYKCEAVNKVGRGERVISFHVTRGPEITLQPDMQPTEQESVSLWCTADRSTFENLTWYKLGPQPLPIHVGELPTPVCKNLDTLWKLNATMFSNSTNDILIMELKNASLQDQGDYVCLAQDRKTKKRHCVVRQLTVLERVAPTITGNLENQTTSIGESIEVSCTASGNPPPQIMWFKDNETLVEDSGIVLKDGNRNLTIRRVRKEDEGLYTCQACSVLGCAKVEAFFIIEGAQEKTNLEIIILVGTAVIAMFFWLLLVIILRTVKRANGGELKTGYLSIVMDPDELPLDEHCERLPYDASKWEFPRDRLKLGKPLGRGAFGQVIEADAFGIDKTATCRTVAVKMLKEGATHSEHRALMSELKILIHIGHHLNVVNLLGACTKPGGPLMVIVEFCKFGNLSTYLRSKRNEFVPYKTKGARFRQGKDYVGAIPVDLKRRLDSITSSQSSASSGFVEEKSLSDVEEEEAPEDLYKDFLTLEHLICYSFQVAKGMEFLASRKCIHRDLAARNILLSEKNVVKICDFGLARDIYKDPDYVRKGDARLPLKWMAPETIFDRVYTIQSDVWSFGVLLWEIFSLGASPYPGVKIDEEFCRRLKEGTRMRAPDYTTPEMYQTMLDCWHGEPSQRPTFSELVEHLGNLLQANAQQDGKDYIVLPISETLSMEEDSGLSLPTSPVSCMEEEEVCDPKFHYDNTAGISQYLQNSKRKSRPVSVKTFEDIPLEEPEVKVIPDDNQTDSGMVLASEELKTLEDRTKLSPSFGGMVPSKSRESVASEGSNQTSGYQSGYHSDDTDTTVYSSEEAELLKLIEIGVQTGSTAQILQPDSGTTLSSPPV
measuredAttribute: IC50

>>> observedresult("COc1cccc(-c2cnc(Nc3ccc(N4CCOCC4)cc3)o2)c1")
"< 1000 nM"
>>> observedresult("COc1cccc(-c2cnc(Nc3ccc(CN4CCCCC4)cc3)o2)c1")
"< 1000 nM"
>>> observedresult("CC(C)COc1cccc(-c2cnc(Nc3ccc(N4CCN(C)CC4)cc3)o2)c1")
"< 1000 nM"
>>> observedresult("COc1cccc(-c2cnc(Nc3ccc(CN4CCCC4)cc3)o2)c1")
"< 100 nM"
>>> observedresult("CN1CCN(c2ccc(Nc3ncc(-c4ccccc4)o3)cc2)CC1")
"< 1000 nM"
>>> observedresult("CCCOc1cccc(-c2cnc(Nc3ccc(N4CCN(C)CC4)cc3)o2)c1")
"< 100 nM"
>>> observedresult("COc1cccc(-c2cnc(Nc3ccc(N4CCN(C)CC4)c(F)c3)o2)c1")
"< 1000 nM"
>>> observedresult("COc1cccc(-c2cnc(Nc3ccc(N4CCN(C)CC4)nc3)o2)c1")
"< 1000 nM"
>>> observedresult("CN1CCN(c2ccc(Nc3ncc(-c4cccc(OC5CCCC5)c4)o3)cn2)CC1")
"< 1000 nM"
>>> observedresult("COc1cccc(-c2cnc(Nc3ccc(N4CCCCC4)cc3)o2)c1")
"< 1000 nM"

* * *

Entries with reported IC50 on CDK2 (Homo sapiens, UniProt P24941)
measuredAttribute: IC50

>>> observedresult("CCN1CCN(c2ccc(Nc3ncc(-c4ccccc4)o3)cc2)CC1")
"< 10 µM"
>>> observedresult("COc1cccc(-c2cnc(Nc3ccc(N4CCOCC4)cc3)o2)c1")
"< 1 µM"
>>> observedresult("COc1cccc(-c2cnc(Nc3ccc(N4CCN(C)CC4)c(Cl)c3)o2)c1")
"< 1 µM"
>>> observedresult("CC(C)Oc1cccc(-c2cnc(Nc3ccc(N4CCN(C)CC4)cc3)o2)c1")
"< 0.1 µM"
>>> observedresult("CCN(CC)c1ccc(Nc2ncc(-c3cccc(OC)c3)o2)cn1")
"< 10 µM"
>>> observedresult("CCN1CCN(c2ccc(Nc3ncc(-c4cccc(OC)c4)o3)cc2)CC1")
"< 1 µM"
>>> observedresult("COc1cccc(-c2cnc(Nc3ccc(CN4CCN(C)CC4)cc3)o2)c1")
"< 1 µM"
>>> observedresult("CN1CCN(c2ccc(Nc3ncc(-c4cccc(OC5CCCC5)c4)o3)cn2)CC1")
"< 0.1 µM"
>>> observedresult("CCN(CC)CCNC(=O)c1ccc(Nc2ncc(-c3cccc(OC)c3)o2)cc1")
"< 1 µM"
>>> observedresult("CN1CCN(c2ccc(Nc3ncc(-c4cccc(OCc5ccccc5)c4)o3)cc2)CC1")
"< 1 µM"
>>> observedresult("Oc1cccc(-c2cnc(Nc3ccccc3)o2)c1")
"< 1 µM"
>>> observedresult("COc1cccc(-c2cnc(Nc3ccc(CCN(C)C)cc3)o2)c1")
"< 1 µM"
>>> observedresult("Cc1cc(Nc2ncc(-c3cccc(OC4CCCC4)c3)o2)ccc1N1CCN(C)CC1")
"< 0.1 µM"

* * *

Items are presented alongside their recorded pIC50.
target: CDK4 (Homo sapiens, UniProt P11802)
Sequence (P11802 whole entry, species assumed): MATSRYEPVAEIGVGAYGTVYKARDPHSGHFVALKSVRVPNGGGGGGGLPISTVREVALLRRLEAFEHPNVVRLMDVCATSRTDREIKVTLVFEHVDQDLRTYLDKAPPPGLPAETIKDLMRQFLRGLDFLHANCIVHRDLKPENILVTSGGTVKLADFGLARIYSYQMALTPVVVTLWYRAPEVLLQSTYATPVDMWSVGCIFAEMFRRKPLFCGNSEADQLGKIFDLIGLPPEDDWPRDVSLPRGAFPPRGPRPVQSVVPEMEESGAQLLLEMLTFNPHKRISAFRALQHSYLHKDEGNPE
Sequence (P24385 whole entry partner, species assumed): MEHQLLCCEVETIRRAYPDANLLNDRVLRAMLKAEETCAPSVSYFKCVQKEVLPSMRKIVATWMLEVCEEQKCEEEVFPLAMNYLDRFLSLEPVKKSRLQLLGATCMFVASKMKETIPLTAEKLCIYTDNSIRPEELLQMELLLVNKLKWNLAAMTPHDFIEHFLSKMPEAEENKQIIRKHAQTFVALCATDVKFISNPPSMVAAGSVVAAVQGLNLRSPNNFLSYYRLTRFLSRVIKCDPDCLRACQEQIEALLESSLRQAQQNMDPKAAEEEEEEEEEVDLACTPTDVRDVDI
pIC50: −log10 of the molar value.
measuredAttribute: pIC50

>>> observedresult("CCN(CC)c1ccc(Nc2ncc(-c3cccc(OC)c3)o2)cn1")
"> 5.00"
>>> observedresult("COc1cccc(-c2cnc(Nc3ccc(N4CCN(C)CC4)nc3)o2)c1")
"> 6.00"
>>> observedresult("CCOc1cccc(-c2cnc(Nc3ccc(N4CCN(C)CC4)cc3)o2)c1")
"> 7.00"
>>> observedresult("COc1cccc(-c2cnc(Nc3ccc(CN4CCCC4)cc3)o2)c1")
"> 7.00"
>>> observedresult("CN1CCN(c2ccc(Nc3ncc(-c4cccc(OC5CCCC5)c4)o3)cc2C(F)(F)F)CC1")
"> 7.00"
>>> observedresult("CN1CCN(c2ccc(Nc3ncc(-c4cccc(OC5CCCC5)c4)o3)cn2)CC1")
"> 7.00"
>>> observedresult("CN1CCN(c2ccc(Nc3ncc(-c4cccc(OC5CCCC5)c4)o3)cc2)CC1")
"> 7.00"
>>> observedresult("Cc1cc(Nc2ncc(-c3cccc(OC4CCCC4)c3)o2)cnc1N1CCN(C)CC1")
"> 7.00"
>>> observedresult("CN1CCN(c2ccc(Nc3ncc(-c4ccccc4)o3)cc2)CC1")
"> 6.00"
>>> observedresult("COc1cccc(-c2cnc(Nc3ccc(N4CCN(C)CC4)c(C)c3)o2)c1")
"> 7.00"
>>> observedresult("COc1cccc(-c2cnc(Nc3ccc(CN4CCOCC4)cc3)o2)c1")
"> 6.00"
>>> observedresult("CC(C)COc1cccc(-c2cnc(Nc3ccc(N4CCN(C)CC4)cc3)o2)c1")
"> 7.00"
>>> observedresult("CN1CCN(Cc2ccc(Nc3ncc(-c4ccccc4)o3)cc2)CC1")
"> 6.00"
>>> observedresult("COc1cccc(-c2cnc(Nc3ccc(CN4CCCCC4)cc3)o2)c1")
"> 7.00"
>>> observedresult("COc1cccc(-c2cnc(Nc3ccc(N4CCN(C)CC4)c(C(F)(F)F)c3)o2)c1")
"> 7.00"
>>> observedresult("CN1CCN(c2ccc(Nc3ncc(-c4cccc(OC5CCCC5)c4)o3)cc2Cl)CC1")
"> 7.00"
>>> observedresult("CC(C)Oc1cccc(-c2cnc(Nc3ccc(N4CCN(C)CC4)cc3)o2)c1")
"> 7.00"
